Test system: 521955-158-R2-J5-PDC complex spheroids, viability
run.description: Anticancer human tumor 521955-158-R2-J5-PDC patient-derived pancreatic carcinoma cell line growth inhibition [RAS]
condition.label: curve of first compound; second compound 0.3 µM
parameter.measured: IC50

Entry CC(C)n1nc(-c2ccc3oc(N)nc3c2)c2c(N)ncnc21 + CCn1c(-c2cc(N3CCN(C)CC3)cnc2C(C)OC)c2c3cc(ccc31)-c1csc(n1)CC(NC(=O)C1CC1C)C(=O)N1CCCC(N1)C(=O)OCC(C)(C)C2 , IC50 reported as < 0.316 nM

The recorded IC50 for entry Cc1nc(N2CCC3(CC2)COC(C)C3N)c(CO)nc1Sc1ccnc(N)c1Cl (centres undefined) + CCn1c(-c2cc(N3CCN(C)CC3)cnc2C(C)OC)c2c3cc(ccc31)-c1csc(n1)CC(NC(=O)C1CC1C)C(=O)N1CCCC(N1)C(=O)OCC(C)(C)C2 equals < 31.6 nM

Documented IC50 of CC(=O)OC12COC1CC(O)C1(C)C(=O)C(O)C3=C(C)C(OC(=O)C(O)C(NC(=O)OC(C)(C)C)c4ccccc4)CC(O)(C(OC(=O)c4ccccc4)C21)C3(C)C (centres undefined) + CCn1c(-c2cccnc2C(C)OC)c2c3cc(ccc31)N1CCOC(CC(NC(=O)C(C(C)C)N(C)C(=O)C3(F)CCN(C(=O)C#CC(C)(C)N(C)C)CC3)C(=O)N3CCCC(N3)C(=O)OCC(C)(C)C2)C1 : < 31.6 nM

The reported IC50 of the molecule CCC(CC)c1cc(NC2CCC(N)C2)n2nccc2n1 (centres undefined) + CCn1c(-c2cc(N3CCN(C)CC3)cnc2C(C)OC)c2c3cc(ccc31)-c1csc(n1)CC(NC(=O)C1CC1C)C(=O)N1CCCC(N1)C(=O)OCC(C)(C)C2 was < 31.6 nM

----------
Listing of recorded IC50 by entry.
Test system: 521955-158-R2-J5-PDC complex spheroids, viability
run.description: Anticancer human tumor 521955-158-R2-J5-PDC cell line growth inhibition [RAS];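 also: compound exposure lasted seven days before the viability read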
condition.label: curve of first compound; second compound 0.3 µM

Reference set, count: 2
- compound: "C=CC(=O)Nc1cc(Nc2nccc(-c3cn(C)c4ccccc34)n2)c(OC)cc1N(C)CCN(C)C + CCn1c(-c2cc(N3CCN(C)CC3)cnc2C(C)OC)c2c3cc(ccc31)-c1csc(n1)CC(NC(=O)C1CC1C)C(=O)N1CCCC(N1)C(=O)OCC(C)(C)C2"
  measurement.target: "521955-158-R2-J5-PDC complex spheroids, viability"
  IC50: "< 3.16 nM"
- compound: "CC1(C)CCC(Nc2ncc(C(F)(F)F)c(-c3c[nH]c4c(P(C)(C)=O)c(C#N)ccc34)n2)CN1 (stereo not drawn) + CCn1c(-c2cc(N3CCN(C)CC3)cnc2C(C)OC)c2c3cc(ccc31)-c1csc(n1)CC(NC(=O)C1CC1C)C(=O)N1CCCC(N1)C(=O)OCC(C)(C)C2"
  measurement.target: "521955-158-R2-J5-PDC complex spheroids, viability"
  IC50: "< 0.949 nM"

Reported IC50 for C[C@@H](NC(=O)c1ncnc(N)c1Cl)c1ncc(C(=O)Nc2cc(C(F)(F)F)c(Cl)cn2)s1 + CCn1c(-c2cc(N3CCN(C)CC3)cnc2C(C)OC)c2c3cc(ccc31)-c1csc(n1)CC(NC(=O)C1CC1C)C(=O)N1CCCC(N1)C(=O)OCC(C)(C)C2 was < 31.6 nM

Where these numbers come from: PubChem BioAssay AID2060900
